Where do the numbers come from? From the supplement of paper PMC11208160.

- experiment.notes: recombinant barcode read abundance after kanamycin selection (control-corrected) (log10(CPM+1)); higher = more efficient recombination; sequences stand for … in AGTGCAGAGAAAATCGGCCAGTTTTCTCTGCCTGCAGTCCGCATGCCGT…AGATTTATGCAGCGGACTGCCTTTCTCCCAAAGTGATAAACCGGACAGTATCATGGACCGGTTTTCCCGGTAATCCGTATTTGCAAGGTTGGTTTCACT; site = the 11-nt target;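 also: IS621 recombinase and bridge RNA in Escherichia coli cells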
# if value of recombinant barcode read abundance (log10) reaches 0.4, tag TRUE; if it stays below, tag FALSE

The following sequences have reported results that may help.
# ordered.residues, class.label
measured = [
    ("GCGTCGGCTTGGGTTCTAACCTGTTGCCT (site GCATCGGCTAG)", "TRUE"),
    ("GGTTGGCCTTGGGTTCTAACCTGTTGCGG (site GGTTGGCCTCC)", "TRUE"),
    ("CAATCACCTTGGGTTCTAACCTGTTGCTT (site CAACCACCTAA)", "TRUE"),
    ("AGACCCTCTTGGGTTCTAACCTGTTGCCT (site TGACCCTCTAG)", "TRUE"),
    ("ATTCGAGCTTGGGTTCTAACCTGTTGCGG (site ATTCGAGCTCC)", "TRUE"),
]

Query: Is it the case that ACAGGCGCTTGGGTTCTAACCTGTTGCCT (site ACAGGCGCTAG) has recombinant barcode read abundance (log10) reaching or exceeding 0.4?
Response: TRUE

Query: Is it the case that TTGGCCGCTTGGGTTCTAACCTGTTGCCT (site TTGGGCGCTAG) has recombinant barcode read abundance (log10) reaching or exceeding 0.4?
Response: FALSE

Query: Is it the case that CCAAGCCCTTGGGTTCTAACCTGTTGCCT (site CCAAGCTCTAG) has recombinant barcode read abundance (log10) reaching or exceeding 0.4?
Response: FALSE

Query: Is it the case that CAGTAGTCTTGGGTTCTAACCTGTTGCCT (site CAGTACTCTAG) has recombinant barcode read abundance (log10) reaching or exceeding 0.4?
Response: FALSE

Query: Is it the case that AATGATTCTTGGGTTCTAACCTGTTGCGT (site GGGCCGGCTCG) has recombinant barcode read abundance (log10) reaching or exceeding 0.4?
Response: TRUE

Query: Is it the case that ATGGTGACTTGGGTTCTAACCTGTTGCCT (site ATGGTGTCTAG) has recombinant barcode read abundance (log10) reaching or exceeding 0.4?
Response: FALSE

Query: Is it the case that CAGGGGACTTGGGTTCTAACCTGTTGCCA (site CAGGGGACTTG) has recombinant barcode read abundance (log10) reaching or exceeding 0.4?
Response: TRUE

Query: Is it the case that TATTATCCTTGGGTTCTAACCTGTTGCCT (site TATTAACCTAG) has recombinant barcode read abundance (log10) reaching or exceeding 0.4?
Response: FALSE

Query: Is it the case that CACTTAACTTGGGTTCTAACCTGTTGCCT (site CACTTAACTAG) has recombinant barcode read abundance (log10) reaching or exceeding 0.4?
Response: TRUE

Query: Is it the case that GTACGTCCTTGGGTTCTAACCTGTTGCGT (site GTACGTCCTAT) has recombinant barcode read abundance (log10) reaching or exceeding 0.4?
Response: TRUE

Query: Is it the case that CTCCTCCCTTGGGTTCTAACCTGTTGCCT (site CTCCTCTCTAG) has recombinant barcode read abundance (log10) reaching or exceeding 0.4?
Response: FALSE

Query: Is it the case that ACTACCTCTTGGGTTCTAACCTGTTGCCT (site AGTACCTCTAG) has recombinant barcode read abundance (log10) reaching or exceeding 0.4?
Response: FALSE

Query: Is it the case that TGACGTCCTTGGGTTCTAACCTGTTGCAT (site TGACGTCCTAT) has recombinant barcode read abundance (log10) reaching or exceeding 0.4?
Response: TRUE

Query: Is it the case that GATAACGCTTGGGTTCTAACCTGTTGCCT (site ATGGTACCTTA) has recombinant barcode read abundance (log10) reaching or exceeding 0.4?
Response: FALSE

Query: Is it the case that GTATGAGCTTGGGTTCTAACCTGTTGCGG (site GTATGAGCTCC) has recombinant barcode read abundance (log10) reaching or exceeding 0.4?
Response: TRUE

Query: Is it the case that TTCGGGCCTTGGGTTCTAACCTGTTGCCT (site TTCGGGCCTAG) has recombinant barcode read abundance (log10) reaching or exceeding 0.4?
Response: FALSE
